target: Mutant CD33-GFP M5 (AEAD), quadruple mutant, on 293FT cells (UniProt P20138); experiment: FACS, mutant CD33-GFP on 293FT cells
Sequence (P20138 other isoform, or with tags, fused parts or gaps mutant): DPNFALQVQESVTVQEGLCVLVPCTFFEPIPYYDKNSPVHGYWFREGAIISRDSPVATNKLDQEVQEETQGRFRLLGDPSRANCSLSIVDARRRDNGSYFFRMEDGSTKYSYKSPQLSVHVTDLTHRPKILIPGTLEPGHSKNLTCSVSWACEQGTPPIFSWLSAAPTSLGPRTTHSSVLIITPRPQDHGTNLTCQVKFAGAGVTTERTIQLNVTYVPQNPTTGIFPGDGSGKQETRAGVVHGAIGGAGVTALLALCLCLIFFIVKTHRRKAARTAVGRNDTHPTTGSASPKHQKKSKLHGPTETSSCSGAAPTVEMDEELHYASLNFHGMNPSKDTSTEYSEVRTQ
quantity name: FACS binding data
// response body must contain only the number

Here is how some binders turned out for FACS binding data.
{"columns": ["binder", "observed result"],
 "data": [
  ["sdCD33_9 (VHH, sdAb from a naive llama phage library; also called 426; sdAb426) VHH: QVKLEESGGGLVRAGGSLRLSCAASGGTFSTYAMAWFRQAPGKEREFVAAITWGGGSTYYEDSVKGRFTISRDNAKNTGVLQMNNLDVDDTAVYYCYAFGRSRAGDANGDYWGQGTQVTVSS", 1.2],
  ["sdCD33_6 (VHH, sdAb from a naive llama phage library; also called 416; sdAb416) VHH: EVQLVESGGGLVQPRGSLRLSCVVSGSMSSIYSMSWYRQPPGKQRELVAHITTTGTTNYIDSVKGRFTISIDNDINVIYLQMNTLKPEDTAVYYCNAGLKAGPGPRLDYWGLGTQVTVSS", 0.24]
]}

Query string: GET /values?readout=FACS binding data&item= sdCD33_3 (VHH) VHH: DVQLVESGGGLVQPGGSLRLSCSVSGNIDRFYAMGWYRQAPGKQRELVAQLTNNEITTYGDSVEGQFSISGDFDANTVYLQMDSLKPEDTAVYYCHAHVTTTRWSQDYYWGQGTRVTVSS
Result string: 0.31

Query string: Now try sdCD33_8 (VHH, sdAb from a naive llama phage library; also called 424; sdAb424) VHH: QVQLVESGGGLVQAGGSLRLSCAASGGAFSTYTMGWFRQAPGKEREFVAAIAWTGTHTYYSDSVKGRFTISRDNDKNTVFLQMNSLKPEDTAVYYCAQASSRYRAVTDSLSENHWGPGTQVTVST .
Result string: 0.07
